Tested on: Huh-7
Protocol Text: Inhibition of HCV genotype-1a NS5A infected in human HuH7 cells by luciferase reporter gene assay
Type: cell-based
Assay Context: Hepatitis C virus subtype 1a

Molecule: COCc1ncc(C2Oc3cc(-c4cnc([C@@H]5CCCN5C(=O)[C@@H](NC(=O)OC)C(C)C)[nH]4)cc(F)c3-c3cc4cc(-c5cnc([C@@H]6CCCN6C(=O)[C@@H](NC(=O)OC)C(C)C)[nH]5)ccc4n32)s1 (stereo partly drawn)
EC90 / pM: 2
--
Molecule: COC(=O)N[C@H](C(=O)N1CCC[C@H]1c1ncc(-c2cc(F)c3c(c2)OC(c2cnc(C4CC4)s2)n2c-3cc3cc(-c4cnc([C@@H]5C[C@H]6C[C@H]6N5C(=O)[C@@H](NC(=O)OC)C(C)C)[nH]4)ccc32)[nH]1)C(C)C (stereo partly drawn)
EC90 / pM: 6
--
Molecule: COC(=O)N[C@H](C(=O)N1CCC[C@H]1c1ncc(-c2cc(F)c3c(c2)OC(c2cnc(C(C)C)s2)n2c-3cc3cc(-c4cnc([C@@H]5CCCN5C(=O)[C@@H](NC(=O)OC)C(C)C)[nH]4)ccc32)[nH]1)C(C)C (stereo partly drawn)
EC90 / pM: 2
--
Molecule: COCc1ccc(C2Oc3cc(-c4cnc([C@@H]5CCCN5C(=O)[C@@H](NC(=O)OC)C(C)C)[nH]4)cc(F)c3-c3cc4cc(-c5cnc([C@@H]6CCCN6C(=O)[C@@H](NC(=O)OC)C(C)C)[nH]5)ccc4n32)s1 (stereo partly drawn)
EC90 / pM: 5
--
Molecule: COC(=O)N[C@H](C(=O)N1CCC[C@H]1c1ncc(-c2cc(F)c3c(c2)OC(c2sc(C(C)C)nc2C)n2c-3cc3cc(-c4cnc([C@@H]5CCCN5C(=O)[C@@H](NC(=O)OC)C(C)C)[nH]4)ccc32)[nH]1)C(C)C (stereo partly drawn)
EC90 / pM: 4
--
Molecule: CCOc1cccc([C@@H]2Oc3cc(-c4cnc([C@@H]5CCCN5C(=O)[C@@H](NC(=O)OC)C(C)C)[nH]4)cc(F)c3-c3cc4cc(-c5cnc([C@@H]6CCCN6C(=O)[C@@H](NC(=O)OC)C(C)C)[nH]5)ccc4n32)c1
EC90 / pM: 10
--
Molecule: COC(=O)N[C@H](C(=O)N1CCC[C@H]1c1ncc(-c2cc(F)c3c(c2)OC(c2cnc(C4(C)CC4)s2)n2c-3cc3cc(-c4cnc([C@@H]5C[C@H]6C[C@H]6N5C(=O)[C@@H](NC(=O)OC)C(C)C)[nH]4)ccc32)[nH]1)C(C)C (stereo partly drawn)
EC90 / pM: 5
--
Molecule: COC(=O)N[C@H](C(=O)N1CCC[C@H]1c1ncc(-c2ccc3c(c2)OC(c2ccc(C4CC4)s2)n2c-3cc3cc(-c4cnc([C@@H]5CCCN5C(=O)[C@@H](NC(=O)OC)C(C)C)[nH]4)ccc32)[nH]1)C(C)C (stereo partly drawn)
EC90 / pM: 3
--
Molecule: COC(=O)N[C@H](C(=O)N1CCC[C@H]1c1ncc(-c2cc(F)c3c(c2)OC(c2cc(F)c(C4CC4)s2)n2c-3cc3cc(-c4cnc([C@@H]5CCCN5C(=O)[C@@H](NC(=O)OC)C(C)C)[nH]4)ccc32)[nH]1)C(C)C (stereo partly drawn)
EC90 / pM: 5
--
Molecule: CCc1ccc([C@@H]2Oc3cc(-c4cnc([C@@H]5CCCN5C(=O)[C@@H](NC(=O)OC)C(C)C)[nH]4)cc(F)c3-c3cc4cc(-c5cnc([C@@H]6CCCN6C(=O)[C@@H](NC(=O)OC)C(C)C)[nH]5)ccc4n32)s1
EC90 / pM: 3
--
Molecule: COC(=O)N[C@H](C(=O)N1CCC[C@H]1c1ncc(-c2cc(F)c3c(c2)OC(c2cnc(C(F)F)s2)n2c-3cc3cc(-c4cnc([C@@H]5CCCN5C(=O)[C@@H](NC(=O)OC)C(C)C)[nH]4)ccc32)[nH]1)C(C)C (stereo partly drawn)
EC90 / pM: 2
--
Molecule: COC(=O)N[C@H](C(=O)N1CCC[C@H]1c1ncc(-c2cc(F)c3c(c2)O[C@@H](c2cnc(C4CC4)s2)n2c-3cc3cc(-c4cnc([C@@H]5CCCN5C(=O)[C@@H](NC(=O)OC)C(C)C)[nH]4)ccc32)[nH]1)C(C)C
EC90 / pM: 3
--
Molecule: CCCc1ncc(C2Oc3cc(-c4cnc([C@@H]5CCCN5C(=O)[C@@H](NC(=O)OC)C(C)C)[nH]4)cc(F)c3-c3cc4cc(-c5cnc([C@@H]6C[C@H]7C[C@H]7N6C(=O)[C@@H](NC(=O)OC)C(C)C)[nH]5)ccc4n32)s1 (stereo partly drawn)
EC90 / pM: 5
--
Molecule: COC(=O)N[C@H](C(=O)N1CCC[C@H]1c1ncc(-c2cc(F)c3c(c2)OC(c2ccsc2)n2c-3cc3cc(-c4cnc([C@@H]5CCCN5C(=O)[C@@H](NC(=O)OC)C(C)C)[nH]4)ccc32)[nH]1)C(C)C (stereo partly drawn)
EC90 / pM: 2
--
Molecule: COC(=O)N[C@H](C(=O)N1CCC[C@H]1c1ncc(-c2cc(F)c3c(c2)OC(c2cc4c(s2)CCC4)n2c-3cc3cc(-c4cnc([C@@H]5C[C@H]6C[C@H]6N5C(=O)[C@@H](NC(=O)OC)C(C)C)[nH]4)ccc32)[nH]1)C(C)C (stereo partly drawn)
EC90 / pM: 6
--
Molecule: COC(=O)N[C@H](C(=O)N1CCC[C@H]1c1ncc(-c2cc(F)c3c(c2)OC(c2cncs2)n2c-3cc3cc(-c4cnc([C@@H]5CCCN5C(=O)[C@@H](NC(=O)OC)C(C)C)[nH]4)ccc32)[nH]1)C(C)C (stereo partly drawn)
EC90 / pM: 6
--
Molecule: COC(=O)N[C@H](C(=O)N1CCC[C@H]1c1ncc(-c2ccc3c(c2)O[C@@H](c2ccc(C4CC4)cc2)n2c-3cc3cc(-c4cnc([C@@H]5CCCN5C(=O)[C@@H](NC(=O)OC)C(C)C)[nH]4)ccc32)[nH]1)C(C)C
EC90 / pM: 4
--
Molecule: COC(=O)N[C@H](C(=O)N1CCC[C@H]1c1ncc(-c2cc(F)c3c(c2)OC(c2ncc(C4CC4)s2)n2c-3cc3cc(-c4cnc([C@@H]5CCCN5C(=O)[C@@H](NC(=O)OC)C(C)C)[nH]4)ccc32)[nH]1)C(C)C (stereo partly drawn)
EC90 / pM: 5

----------
System: Huh-7
Protocol Text: Inhibition of HCV genotype-1a NS5A infected in human HuH7 cells by luciferase reporter gene assay
Format: cell-based
Assay Context: Hepatitis C virus subtype 1a

Molecule: COC(=O)N[C@H](C(=O)N1CCC[C@H]1c1ncc(-c2ccc3c(c2)cc2n3C(c3cc4ccccc4s3)Oc3cc(-c4cnc([C@@H]5C[C@@H](F)CN5C(=O)[C@@H](NC(=O)OC)C(C)C)[nH]4)ccc3-2)[nH]1)C(C)C (some centres undefined)
EC90 (pM): 10

Molecule: COC(=O)N[C@H](C(=O)N1CCC[C@H]1c1ncc(-c2cc(F)c3c(c2)OC(c2ccc(C4CC4)s2)n2c-3cc3cc(-c4cnc([C@@H]5C[C@H]6C[C@H]6N5C(=O)[C@@H](NC(=O)OC)C(C)C)[nH]4)ccc32)[nH]1)C(C)C (some centres undefined)
EC90 (pM): 4

Molecule: COC(=O)N[C@H](C(=O)N1CCC[C@H]1c1ncc(-c2cc(F)c3c(c2)OC(c2ccc(CC4CC4)s2)n2c-3cc3cc(-c4cnc([C@@H]5CCCN5C(=O)[C@@H](NC(=O)OC)C(C)C)[nH]4)ccc32)[nH]1)C(C)C (some centres undefined)
EC90 (pM): 3

Molecule: COC(=O)N[C@H](C(=O)N1CCC[C@H]1c1ncc(-c2cc(F)c3c(c2)OC(c2cnc(OC)s2)n2c-3cc3cc(-c4cnc([C@@H]5CCCN5C(=O)[C@@H](NC(=O)OC)C(C)C)[nH]4)ccc32)[nH]1)C(C)C (some centres undefined)
EC90 (pM): 2

----------
Test system: Nonstructural protein 5A (Hepatitis C virus), Q5L478 [UNDEFINED MUTATION]
Protocol Text: Inhibition of HCV genotype-1a NS5A L31V mutant infected in human HuH7 cells by luciferase reporter gene assay
Assay type: cell-based
Assay Context: Hepatitis C virus subtype 1a; Huh-7
Catalogue of log10 of EC90 values
Readout: log10 of EC90 (log10 of the value in nM)

Molecule: COC(=O)N[C@H](C(=O)N1CCC[C@H]1c1ncc(-c2cc(F)c3c(c2)OC(c2cnc(C4CC4)s2)n2c-3cc3cc(-c4cnc([C@@H]5C[C@H]6C[C@H]6N5C(=O)[C@@H](NC(=O)OC)C(C)C)[nH]4)ccc32)[nH]1)C(C)C (some centres undefined)
log10 of EC90: -2.15

Molecule: COC(=O)N[C@H](C(=O)N1CCC[C@H]1c1ncc(-c2cc(F)c3c(c2)OC(c2ccc(C4CC4(F)F)s2)n2c-3cc3cc(-c4cnc([C@@H]5CCCN5C(=O)[C@@H](NC(=O)OC)C(C)C)[nH]4)ccc32)[nH]1)C(C)C (some centres undefined)
log10 of EC90: -1.70

Molecule: COC(=O)N[C@H](C(=O)N1CCC[C@H]1c1ncc(-c2cc(F)c3c(c2)OC(c2cc(C4CC4)cs2)n2c-3cc3cc(-c4cnc([C@@H]5CCCN5C(=O)[C@@H](NC(=O)OC)C(C)C)[nH]4)ccc32)[nH]1)C(C)C (some centres undefined)
log10 of EC90: -1.55

Molecule: COC(=O)N[C@H](C(=O)N1CCC[C@H]1c1ncc(-c2cc(F)c3c(c2)OC(c2cccs2)n2c-3cc3cc(-c4cnc([C@@H]5CCCN5C(=O)[C@@H](NC(=O)OC)C(C)C)[nH]4)ccc32)[nH]1)C(C)C (mixture of isomers)
log10 of EC90: -0.12

Molecule: COC(=O)N[C@H](C(=O)N1CCC[C@H]1c1ncc(-c2cc(F)c3c(c2)OC(c2ccc(CC4CC4)s2)n2c-3cc3cc(-c4cnc([C@@H]5CCCN5C(=O)[C@@H](NC(=O)OC)C(C)C)[nH]4)ccc32)[nH]1)C(C)C (some centres undefined)
log10 of EC90: -1.96

Molecule: COC(=O)N[C@H](C(=O)N1CCC[C@H]1c1ncc(-c2cc(F)c3c(c2)OC(c2cnc(C(C)C)s2)n2c-3cc3cc(-c4cnc([C@@H]5C[C@H]6C[C@H]6N5C(=O)[C@@H](NC(=O)OC)C(C)C)[nH]4)ccc32)[nH]1)C(C)C (some centres undefined)
log10 of EC90: -2.10

Molecule: COC(=O)N[C@H](C(=O)N1CCC[C@H]1c1ncc(-c2cc(F)c3c(c2)OC(c2sccc2C2CC2)n2c-3cc3cc(-c4cnc([C@@H]5CCCN5C(=O)[C@@H](NC(=O)OC)C(C)C)[nH]4)ccc32)[nH]1)C(C)C (some centres undefined)
log10 of EC90: 0.24

Molecule: CCCc1ccc(C2Oc3cc(-c4cnc([C@@H]5CCCN5C(=O)[C@@H](NC(=O)OC)C(C)C)[nH]4)cc(F)c3-c3cc4cc(-c5cnc([C@@H]6CCCN6C(=O)[C@@H](NC(=O)OC)C(C)C)[nH]5)ccc4n32)s1 (some centres undefined)
log10 of EC90: -1.89

Molecule: COC(=O)N[C@H](C(=O)N1CCC[C@H]1c1ncc(-c2cc(F)c3c(c2)OC(c2cnc(C4(C)CC4)s2)n2c-3cc3cc(-c4cnc([C@@H]5CCCN5C(=O)[C@@H](NC(=O)OC)C(C)C)[nH]4)ccc32)[nH]1)C(C)C (some centres undefined)
log10 of EC90: -1.19
